FYI, the data here is from patent US20210380702A1.

assay target: T1, recombinant cynomolgus monkey PD-L1 with a C-terminal myc-myc-hexahistidine tag (cynomolgus monkey (Macaca fascicularis))
T1 construct: also called MfPD-L1-MMH; MfPD-L1-MMH Monomer
T1 sequence (chain, as listed by the source limits assumed): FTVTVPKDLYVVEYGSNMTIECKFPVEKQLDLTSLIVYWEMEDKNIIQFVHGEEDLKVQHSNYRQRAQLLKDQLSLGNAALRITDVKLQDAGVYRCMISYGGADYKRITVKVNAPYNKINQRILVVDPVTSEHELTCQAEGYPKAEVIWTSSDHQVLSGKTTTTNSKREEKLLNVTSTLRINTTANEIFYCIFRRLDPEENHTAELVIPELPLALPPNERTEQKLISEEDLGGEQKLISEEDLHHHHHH
assay procedure: SPR (Biacore), mAb captured, 37C

| binder | kon |
| --- | --- |
| H2aM8310N (antibody, mouse IgG2, V domains shown, also called H2M8310N) VH: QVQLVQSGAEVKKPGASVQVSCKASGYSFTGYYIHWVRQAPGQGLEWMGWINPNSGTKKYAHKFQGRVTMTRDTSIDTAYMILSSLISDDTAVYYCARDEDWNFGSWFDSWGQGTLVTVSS VL: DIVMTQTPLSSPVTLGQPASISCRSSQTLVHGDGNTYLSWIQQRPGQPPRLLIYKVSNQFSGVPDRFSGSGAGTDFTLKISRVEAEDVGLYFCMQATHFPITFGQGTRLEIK | 471000 M⁻¹ s⁻¹ |
| H2aM8323N (antibody, mouse IgG2, V domains shown, also called H2M8323N) VH: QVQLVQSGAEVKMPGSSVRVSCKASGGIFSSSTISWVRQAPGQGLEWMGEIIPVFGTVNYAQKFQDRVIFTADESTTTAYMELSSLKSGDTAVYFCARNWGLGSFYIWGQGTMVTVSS VL: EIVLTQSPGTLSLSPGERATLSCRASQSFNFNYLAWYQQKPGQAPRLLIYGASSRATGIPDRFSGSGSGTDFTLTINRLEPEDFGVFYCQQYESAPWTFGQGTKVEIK | 956000 M⁻¹ s⁻¹ |
| H1H9336P (antibody, human IgG1, V domains shown) VH: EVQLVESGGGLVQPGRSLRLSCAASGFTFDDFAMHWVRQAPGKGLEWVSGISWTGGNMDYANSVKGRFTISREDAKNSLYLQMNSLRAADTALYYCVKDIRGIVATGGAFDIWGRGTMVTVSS VL: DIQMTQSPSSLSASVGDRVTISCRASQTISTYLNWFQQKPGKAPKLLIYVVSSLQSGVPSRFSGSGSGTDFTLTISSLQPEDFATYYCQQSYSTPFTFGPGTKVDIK | 909000 M⁻¹ s⁻¹ |
| H2aM8314N (antibody, mouse IgG2, V domains shown, also called H2M8314N) VH: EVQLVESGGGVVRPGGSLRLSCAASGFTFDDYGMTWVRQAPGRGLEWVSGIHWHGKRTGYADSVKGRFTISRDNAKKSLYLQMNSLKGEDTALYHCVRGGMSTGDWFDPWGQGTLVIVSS VL: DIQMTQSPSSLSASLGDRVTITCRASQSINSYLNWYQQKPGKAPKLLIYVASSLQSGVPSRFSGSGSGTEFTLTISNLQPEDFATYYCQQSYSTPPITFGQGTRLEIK | 1.07e+06 M⁻¹ s⁻¹ |
